molecular target: TLR2/TLR6 (Mus musculus) (UniProt Q9QUN7+Q9EPW9); test: Inhibition of TLR2/6 in BALB/c mouse BMDM assessed as downregulation of BLP-stimulated IL-12p40 level at 5 ug/ml preincubated for 18 hrs followed by BLP challenge measured after 24 hrs by ELISA relative to control; assay type: protein-complex assay
Calls of active or inactive are those of the source. No rule for the calls is given here.
Observable: inhibition

Worked cases, answers included:
O=S(=O)(CCN1CCCC1)c1ccccc1 = Active
CN(C)CCN(C)CCS(=O)(=O)NCc1ccc(Br)cc1 = inactive
Cc1ccc(CS(=O)(=O)CCC[N+]2(C)CCCC2)cc1 = inactive
Cc1ccc(CS(=O)(=O)CCCN(C)C)cc1 = inactive
CCCNCCS(=O)(=O)c1ccccc1 = Active
CN(C)CCCNS(=O)(=O)Cc1ccc(Br)cc1 = inactive
O=S(=O)(Cc1ccc(Br)cc1)NCCN1CCOCC1 = inactive
CC[C@@H](C)NCCS(=O)(=O)Cc1cccc(F)c1 = Active

Please go through the list and note inhibition for each compound.
1. CC[C@H](C)NCCS(=O)(=O)Cc1cccc(F)c1
2. O=S(=O)(CCN1CCCC1)Nc1ccc(F)cc1
3. O=S(=O)(CCN1CCOCC1)Cc1cccc(F)c1
4. CN(C)CCS(=O)(=O)NCc1ccc([N+](=O)[O-])cc1
5. CN(C)CCNS(=O)(=O)Cc1ccc(/C=C/c2ccccc2)cc1
6. CN(C)CCNCCS(=O)(=O)c1ccccc1
7. CC[C@H](C)NCCS(=O)(=O)c1ccccc1

inactive
inactive
inactive
Active
Active
inactive
inactive

Please go through the list and note inhibition for each compound.
1. COc1ccc2c(CS(=O)(=O)NCCN3CCOCC3)cc(=O)oc2c1
2. Cc1ccc(CS(=O)(=O)CCCN2CCOCC2)cc1
3. CN(C)CCNS(=O)(=O)Cc1ccc2ccccc2c1
4. Cc1ccc(CP(=O)(O)OCCN(C)C)cc1
5. CN(C)CCNS(=O)(=O)Cc1ccc(Br)cc1
6. CN(C)CCN(C)CCS(=O)(=O)Nc1ccc(F)cc1
7. COc1cccc(C(=O)NCCCN(C)C)c1
8. CN(C)CCN(C)CCS(=O)(=O)c1ccccc1

["Active", "inactive", "inactive", "inactive", "inactive", "inactive", "inactive", "inactive"]
